tested_target: T1, Human NKp46 Fc tag (Acro Biosystems, NC1-H5257) (human, UniProt O76036 22-255)
T1 construct: bought; also called Fc-tagged human NKp46
T1 sequence (O76036 22-255 limits assumed): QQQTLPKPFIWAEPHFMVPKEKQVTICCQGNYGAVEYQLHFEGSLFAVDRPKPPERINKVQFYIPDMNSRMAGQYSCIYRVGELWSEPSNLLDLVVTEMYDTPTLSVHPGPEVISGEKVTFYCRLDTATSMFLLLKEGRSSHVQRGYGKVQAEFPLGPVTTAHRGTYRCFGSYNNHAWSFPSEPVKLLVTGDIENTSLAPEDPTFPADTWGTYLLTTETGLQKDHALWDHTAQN
test_method_notes: SPR Method 1 and/or 2
pKd: −log10 of the molar value. Numbered stars: 1 amine (or outer) side, 2 acyl side, 3 side chain; on linkers, the order of the positions; unused ones are H or OH. Bridge positions count the residues as written; N and C are the ends. Square brackets hold non-standard residues; d marks the D form. Ends that are not written are not given here. TATA = O=C(CC[*:1])N1CN(C(=O)CC[*:2])CN(C(=O)CC[*:3])C1; aIle = CC[C@@H](C)[C@H](N)C(=O)O; hArg = N=C(N)NCCCC[C@H](N)C(=O)O; dCha = N[C@H](CC1CCCCC1)C(=O)O; Cba = N[C@@H](CC1CCC1)C(=O)O; Chg = N[C@H](C(=O)O)C1CCCCC1; Pen = CC(C)(S)[C@H](N)C(=O)O; Tle = CC(C)(C)[C@H](N)C(=O)O; dNle = CCCC[C@@H](N)C(=O)O

binder	pKd
ACNLQAPCMLTG[hArg]VCA-NH2 (linker 2-8-15 via TATA; N-terminus assumed; SMILES CSCC[C@@H]1NC(=O)[C@@H]2CSCCC(=O)N3CN(CN(C3)C(=O)CCSC[C@@H](C(=O)N[C@@H](C)C(N)=O)NC(=O)[C@H](C(C)C)NC(=O)[C@H](CCCCNC(=N)N)NC(=O)CNC(=O)[C@H]([C@@H](C)O)NC(=O)[C@H](CC(C)C)NC1=O)C(=O)CCSC[C@H](NC(=O)[C@H](C)N)C(=O)N[C@@H](CC(N)=O)C(=O)N[C@@H](CC(C)C)C(=O)N[C@@H](CCC(N)=O)C(=O)N[C@@H](C)C(=O)N1CCC[C@H]1C(=O)N2, scaffold TATA) [BCY18328]	6.05
Ac-[Pen]Y[Cba]PDYLC[dA]DEYC-NH2 (linker 1-8-13 via TATA; SMILES CC(=O)N[C@@H]1C(=O)N[C@@H](Cc2ccc(O)cc2)C(=O)N[C@@H](CC2CCC2)C(=O)N2CCC[C@H]2C(=O)N[C@@H](CC(=O)O)C(=O)N[C@@H](Cc2ccc(O)cc2)C(=O)N[C@@H](CC(C)C)C(=O)N[C@H]2CSCCC(=O)N3CN(CN(C3)C(=O)CCSC1(C)C)C(=O)CCSC[C@@H](C(N)=O)NC(=O)[C@H](Cc1ccc(O)cc1)NC(=O)[C@H](CCC(=O)O)NC(=O)[C@H](CC(=O)O)NC(=O)[C@@H](C)NC2=O, scaffold TATA) [BCY19689]	7.80
Ac-CY[Cba]PQYLC[dA]DEYC-NH2 (linker 1-8-13 via TATA; SMILES CC(=O)N[C@H]1CSCCC(=O)N2CN3CN(C2)C(=O)CCSC[C@H](NC(=O)[C@H](CC(C)C)NC(=O)[C@H](Cc2ccc(O)cc2)NC(=O)[C@H](CCC(N)=O)NC(=O)[C@@H]2CCCN2C(=O)[C@H](CC2CCC2)NC(=O)[C@H](Cc2ccc(O)cc2)NC1=O)C(=O)N[C@H](C)C(=O)N[C@@H](CC(=O)O)C(=O)N[C@@H](CCC(=O)O)C(=O)N[C@@H](Cc1ccc(O)cc1)C(=O)N[C@H](C(N)=O)CSCCC3=O, scaffold TATA) [BCY18442]	8.15
ACDLTTHNCQWG[aIle]CA-NH2 (linker 2-9-14 via TATA, scaffold TATA) [BCY19735]	6.34
ACDLTTHNCQWG[Tle]CA-NH2 (linker 2-9-14 via TATA, scaffold TATA) [BCY18289]	6.24
ACNLQLHNCQWGICA-NH2 (linker 2-9-14 via TATA; also: scaffold TATA, TATB or TBMT, scaffold TATA) [BCY15568]	7.16
ACNLQAPCMLTGK[Chg]CA-NH2 (linker 2-8-15 via TATA; N-terminus assumed; SMILES CSCC[C@@H]1NC(=O)[C@@H]2CSCCC(=O)N3CN(CN(C3)C(=O)CCSC[C@@H](C(=O)N[C@@H](C)C(N)=O)NC(=O)[C@H](C3CCCCC3)NC(=O)[C@H](CCCCN)NC(=O)CNC(=O)[C@H]([C@@H](C)O)NC(=O)[C@H](CC(C)C)NC1=O)C(=O)CCSC[C@H](NC(=O)[C@H](C)N)C(=O)N[C@@H](CC(N)=O)C(=O)N[C@@H](CC(C)C)C(=O)N[C@@H](CCC(N)=O)C(=O)N[C@@H](C)C(=O)N1CCC[C@H]1C(=O)N2, scaffold TATA) [BCY18326]	5.56
Ac-ACDLTTHNCQWGICA-NH2 (linker 2-9-14 via TATA, scaffold TATA) [BCY18261]	6.27
ACNLTTHNCQWGICA-NH2 (linker 2-9-14 via TATA; also: scaffold TATA, TATB or TBMT, scaffold TATA) [BCY18273]	6.49
Ac-CY[Cba]PDYLC[dNle]DEYC-NH2 (linker 1-8-13 via TATA; SMILES CCCC[C@H]1NC(=O)[C@@H]2CSCCC(=O)N3CN(CN(C3)C(=O)CCSC[C@H](NC(C)=O)C(=O)N[C@@H](Cc3ccc(O)cc3)C(=O)N[C@@H](CC3CCC3)C(=O)N3CCC[C@H]3C(=O)N[C@@H](CC(=O)O)C(=O)N[C@@H](Cc3ccc(O)cc3)C(=O)N[C@@H](CC(C)C)C(=O)N2)C(=O)CCSC[C@@H](C(N)=O)NC(=O)[C@H](Cc2ccc(O)cc2)NC(=O)[C@H](CCC(=O)O)NC(=O)[C@H](CC(=O)O)NC1=O, scaffold TATA) [BCY19685]	8.00
Ac-CY[Cba]PDYLC[dCha]DEYC-NH2 (linker 1-8-13 via TATA; SMILES CC(=O)N[C@H]1CSCCC(=O)N2CN3CN(C2)C(=O)CCSC[C@H](NC(=O)[C@H](CC(C)C)NC(=O)[C@H](Cc2ccc(O)cc2)NC(=O)[C@H](CC(=O)O)NC(=O)[C@@H]2CCCN2C(=O)[C@H](CC2CCC2)NC(=O)[C@H](Cc2ccc(O)cc2)NC1=O)C(=O)N[C@H](CC1CCCCC1)C(=O)N[C@@H](CC(=O)O)C(=O)N[C@@H](CCC(=O)O)C(=O)N[C@@H](Cc1ccc(O)cc1)C(=O)N[C@H](C(N)=O)CSCCC3=O, scaffold TATA) [BCY19683]	8.00
